- System: SMMC-7721
- Protocol notes: Antiproliferative activity against human SMMC-7721 cells assessed as reduction in cell viability incubated for 48 hrs by MTT assay
- Assay type: functional, cell-based
- Experimental context: SMMC-7721, 48 h
pIC50: −log10 of the molar value.
Recorded metric: pIC50

Chem smiles	Numeric result
CC(C)=CCC[C@@]1(C)CC=C(CF)c2oc(C)cc2[C@@H]1/C=C/OC(=O)C=C(C)C	4.92

I. CC(=O)O[C@H]1C(=O)[C@@]2(C)[C@H]([C@H](OC(=O)c3ccccc3)[C@]3(O)C[C@H](OC(=O)[C@H](O)[C@@H](NC(=O)c4ccccc4)c4ccccc4)C(C)=C1C3(C)C)[C@]1(OC(C)=O)CO[C@@H]1C[C@@H]2O
II. CC(C)=CCC[C@@]1(C)CC=C(CF)c2nnc(C)cc2[C@@H]1/C=C/OC(=O)C=C(C)C
Prompt: Which item exceeds the other in pIC50, I or II ? Write the label of whichever entry you select.
Response: I
(I: 7.01, II: 4.80)

----------
- System: Reticulocyte
- Protocol notes: Inhibition of HSP90 in rabbit reticulocyte lysates at 10 uM incubated for 3 hrs by denatured luciferase refolding assay
- Assay type: subcellular
- Experimental context: Oryctolagus cuniculus
Recorded metric: inhibition (%)

Chem smiles	Scale unit	inhibition
CC(C)=CCC[C@@]1(C)CC=C(CF)c2nnc(C)cc2[C@@H]1/C=C/OC(=O)C=C(C)C	%	77.8

a. CC(C)=CCC[C@]1(C)/C=C/[C@@H](OC(=O)C=C(C)C)[C@](C)(O)/C=C/C(=O)/C(CN2CCN(C)CC2)=C\C1
b. CC(C)=CCC[C@@]1(C)CC=C(CCl)c2oc(C)cc2[C@@H]1/C=C/OC(=O)C=C(C)C
c. CC(C)=CCC[C@@]1(C)CC=C(CN2CCOCC2)c2[nH]c(C)cc2[C@@H]1/C=C/OC(=O)C=C(C)C
Prompt: Given 3 compounds, produce a descending ranking by inhibition. Please express your ranking as an ordered list of the labels.
Response: a, b, c

----------
- Tested on: Reticulocyte
- Protocol notes: Inhibition of HSP90 in rabbit reticulocyte lysates at 10 uM incubated for 3 hrs by denatured luciferase refolding assay
- Assay type: subcellular
- Experimental context: Oryctolagus cuniculus
Recorded metric: inhibition (%)

Example entries begin here.
Chem smiles	Recorded metric	Numeric result
CC(=O)C[C@@H]1C(=O)C(CS)=CC[C@](C)(CCC=C(C)C)[C@H]1/C=C/OC(=O)C=C(C)C	inhibition	0.32
CC(C)=CCC[C@@]1(C)CC=C(COC(=O)CCC(=O)Nc2ccc(F)cc2)c2[nH]c(C)cc2[C@@H]1/C=C/OC(=O)C=C(C)C	inhibition	48
CC(C)=CCC[C@@]1(C)CC=C(CF)c2[nH]c(C)cc2[C@@H]1/C=C/OC(=O)C=C(C)C	inhibition	68.8
CC(=O)C[C@@H]1C(=O)C(COC(=O)c2cc(Cl)ccc2N)=CC[C@](C)(CCC=C(C)C)[C@H]1/C=C/OC(=O)C=C(C)C	inhibition	61.8
CC(C)=CCC[C@@]1(C)CC=C(CNc2ccc(F)cc2)c2nnc(C)cc2[C@@H]1/C=C/OC(=O)C=C(C)C	inhibition	49.3

1. CC(=O)C[C@@H]1C(=O)C(CN2CCOCC2)=CC[C@](C)(CCC=C(C)C)[C@H]1/C=C/OC(=O)C=C(C)C
2. CC(=O)C[C@@H]1C(=O)C(CNc2ccc(F)cc2)=CC[C@](C)(CCC=C(C)C)[C@H]1/C=C/OC(=O)C=C(C)C
Prompt: Determine, for 1 and 2 , which has the greater value of inhibition. # answer = label of selected item
Response: 2
(2: 64.5%, 1: 14.2%)

----------
- Protocol notes: Inhibition of HSP90 in rabbit reticulocyte lysates incubated for 3 hrs by denatured luciferase refolding assay
- Type: subcellular, Oryctolagus cuniculus
Recorded metric: IC50 (µM)

I. CC(C)=CCC[C@@]1(C)CC=C(CCl)c2nnc(C)cc2[C@@H]1/C=C/OC(=O)C=C(C)C
II. CC(C)=CCC[C@]1(C)/C=C/[C@@H](OC(=O)C=C(C)C)[C@](C)(O)/C=C/C(=O)/C(CN2CCN(C)CC2)=C\C1
Prompt: Hey, which is lower on measured IC50, I or II ? Refer to your chosen item by its label in the answer.
Response: II
(II: 0.98 µM, I: 2.37 µM)
